target: human macrophage elastase (HME/hMMP-12) (Homo sapiens); construct: 0.5 nM HME; assay: In vitro HME inhibition test (standard or high-sensitivity); details: in some cases mean values
Sequence (P39900 106-470): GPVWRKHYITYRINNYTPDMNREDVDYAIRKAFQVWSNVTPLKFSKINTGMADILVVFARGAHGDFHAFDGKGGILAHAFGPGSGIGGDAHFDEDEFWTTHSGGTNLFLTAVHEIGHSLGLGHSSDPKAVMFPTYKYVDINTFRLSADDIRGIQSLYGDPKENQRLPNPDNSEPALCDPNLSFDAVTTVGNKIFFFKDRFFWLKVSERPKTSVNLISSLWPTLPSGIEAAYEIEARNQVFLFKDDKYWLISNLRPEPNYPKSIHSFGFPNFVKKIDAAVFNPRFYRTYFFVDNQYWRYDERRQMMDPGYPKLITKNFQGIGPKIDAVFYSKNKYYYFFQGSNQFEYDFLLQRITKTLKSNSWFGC
readout: IC50 (nM)

A = O=C(O)[C@@H]1[C@@H](Cn2nnc3ccc(C(F)(F)F)cc3c2=O)CC[C@H]1C(=O)c1ccc(SCc2ccc(Cl)c(Cl)c2)cc1 (single isomer, unassigned) [Example 80]
B = CCCCCSc1ccc(C(=O)[C@@H]2CC[C@H](Cn3nnc4ccc(C(F)(F)F)cc4c3=O)[C@H]2C(=O)O)cc1 (single isomer, unassigned) [Example 89]
In terms of reported IC50, does A or B have the smaller number? Select an item and report its label.
B

1 = Cc1ccc2nnn(C[C@@H]3CC[C@H](C(=O)c4ccc(OCc5cccc(C(F)(F)F)c5)cc4)[C@H]3C(=O)O)c(=O)c2c1 (racemic)
2 = O=C(O)[C@@H]1[C@@H](Cn2nnc3ccc(C(F)(F)F)cc3c2=O)CC[C@H]1C(=O)c1ccc(OCC2CCCC2)cc1 (single isomer, unassigned) [Example 45]
3 = Cc1ccc2nnn(C[C@H]3CC[C@@H](C(=O)c4ccc(OCc5cccc(OC(F)(F)F)c5)cc4)[C@@H]3C(=O)O)c(=O)c2c1 (single isomer, unassigned) [Example 111]
4 = O=C(O)[C@@H]1[C@@H](Cn2nnc3ccc(C(F)(F)F)cc3c2=O)CC[C@H]1C(=O)c1ccc(SCc2ccc(Cl)c(Cl)c2)cc1 (single isomer, unassigned) [Example 81]
Order the 4 molecules from highest to lowest IC50. Please express your ranking as an ordered list of the labels.
3, 4, 2, 1
(3: 140 nM, 4: 25 nM, 2: 4.1 nM, 1: 0.08 nM)

1 = Cc1cccc(COc2ccc(C(=O)[C@@H]3CC[C@H](Cn4nnc5ccc(C)cc5c4=O)[C@H]3C(=O)O)cc2)c1 (single isomer, unassigned) [Example 99]
2 = CCCOc1ccc(C(=O)[C@H]2CC[C@@H](Cn3nnc4ccc(C(F)(F)F)cc4c3=O)[C@@H]2C(=O)O)cc1 (racemic)
3 = Cc1ccc2nnn(C[C@@H]3CC[C@H](C(=O)c4ccc(OCC5CCCC5)cc4)[C@H]3C(=O)O)c(=O)c2c1 (racemic)
4 = O=C(O)[C@H]1[C@H](Cn2nnc3ccc(C(F)(F)F)cc3c2=O)CC[C@@H]1C(=O)c1ccc(OCc2ccc(Cl)c(Cl)c2)cc1 (racemic)
Order the 4 molecules from highest to lowest IC50. Please express your ranking as an ordered list of the labels.
1, 2, 3, 4
